pEC50: recorded values
Experimental System: hD3 (DRD3) (Homo sapiens, UniProt P35462)
Sequence (P35462 whole entry): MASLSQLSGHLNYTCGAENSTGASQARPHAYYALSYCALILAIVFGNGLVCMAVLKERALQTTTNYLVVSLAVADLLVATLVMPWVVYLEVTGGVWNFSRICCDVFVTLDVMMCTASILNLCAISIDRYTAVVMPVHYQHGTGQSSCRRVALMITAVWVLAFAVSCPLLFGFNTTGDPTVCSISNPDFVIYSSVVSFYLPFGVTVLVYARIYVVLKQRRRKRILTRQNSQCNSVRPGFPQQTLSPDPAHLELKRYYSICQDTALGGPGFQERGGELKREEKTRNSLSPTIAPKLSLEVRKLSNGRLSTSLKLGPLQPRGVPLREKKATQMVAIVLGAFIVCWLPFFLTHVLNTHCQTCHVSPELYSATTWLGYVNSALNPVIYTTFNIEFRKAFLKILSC
Procedure Text: cell-based
Give only the number. pEC50 is defined as minus log10 of concentration in molar units.

Oc1cc(O)cc(Oc2c(O)cc(O)c3c2Oc2c(O)cc4oc5c(Oc6cc(O)cc(O)c6)c(O)cc(O)c5c4c2O3)c1 4.72

We next turn to a different compound, shown below.
Recorded result, `Oc1cc(O)cc(Oc2c(O)cc(O)c3c2Oc2c(O)cc(Oc4c(O)cc(Oc5c(O)cc(O)c6c5Oc5c(O)cc(O)cc5O6)cc4O)cc2O3)c1` , pEC50: 4.35

---

Experimental System: hMAO-A (Homo sapiens, UniProt P21397)
Sequence (P21397 1-527): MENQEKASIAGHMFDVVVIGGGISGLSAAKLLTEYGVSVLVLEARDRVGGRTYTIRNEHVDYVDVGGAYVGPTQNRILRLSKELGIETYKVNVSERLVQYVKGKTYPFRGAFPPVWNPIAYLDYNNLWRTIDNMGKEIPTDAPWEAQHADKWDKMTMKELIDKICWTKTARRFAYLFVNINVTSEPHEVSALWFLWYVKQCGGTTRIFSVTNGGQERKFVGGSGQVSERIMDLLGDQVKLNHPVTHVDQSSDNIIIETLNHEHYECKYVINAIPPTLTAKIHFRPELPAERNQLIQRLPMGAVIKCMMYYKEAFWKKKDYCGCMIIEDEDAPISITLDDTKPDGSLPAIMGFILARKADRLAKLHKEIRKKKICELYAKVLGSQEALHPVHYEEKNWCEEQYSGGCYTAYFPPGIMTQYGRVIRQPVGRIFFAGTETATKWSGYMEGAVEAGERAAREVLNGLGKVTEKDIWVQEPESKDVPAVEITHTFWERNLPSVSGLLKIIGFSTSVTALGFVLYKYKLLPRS
Procedure Text: hMAO-A inhibition, chemiluminescent MAO-Glo assay and kinetic analysis
Type: biochemical
Setup Conditions: recombinant hMAO-A; mean ± SD, n = 3; read-out: IC50 hMAO-A
Value Kind: pIC50
Give only the number. pIC50 is defined as minus log10 of concentration in molar units.

Recorded result, Oc1cc(O)cc(Oc2c(O)cc(O)c3c2Oc2c(O)cc4oc5c(Oc6cc(O)cc(O)c6)c(O)cc(O)c5c4c2O3)c1 [PFF-A, phlorofucofuroeckol-A] , pIC50: 5.04

---

Experimental System: hMAO-A (Homo sapiens)
Procedure Text: hMAO-A inhibition, chemiluminescent MAO-Glo assay and kinetic analysis
Format: biochemical
pIC50: −log10 of the molar value.
Value Kind: pIC50

Recorded result, Oc1cc(O)c2oc3cc(O)c4oc5cc(O)cc(O)c5oc4c3oc2c1 [Dioxinodehydroeckol, dioxinodehydroeckol] , pIC50: < 3.52

---

# EC50 per entry for hD4 (DRD4) (Homo sapiens)
Write the value in µM as a bare number.

Compound	Experimental System	Value Observed
Oc1cc(O)cc(Oc2c(O)cc(O)c3c2Oc2c(O)cc(Oc4c(O)cc(Oc5c(O)cc(O)c6c5Oc5c(O)cc(O)cc5O6)cc4O)cc2O3)c1 [Dieckol, dieckol]	hD4 (DRD4) (Homo sapiens)	34

For the compound Oc1cc(O)cc(Oc2c(O)cc(O)c3c2Oc2c(O)cc4oc5c(Oc6cc(O)cc(O)c6)c(O)cc(O)c5c4c2O3)c1 [PFF-A, phlorofucofuroeckol-A] , the measured EC50 on hD4 (DRD4) (Homo sapiens) was 23.5
